# Experimental details: S. cerevisiae growth modulation with rapamycin, primary screen, strain BY4716, OD600, 96 h (AID 1091); also: test concentration not given here
# Applied conditions: called active from +8 up or from −8 down
Calls of active or inactive are those of the source.
Outcomes: 1 = active, 0 = inactive

>>> qualitative_label("COc1ccc([Si](C)(C)[C@H]2[C@H](CCn3cc([C@H](O)c4ccccc4)nn3)O[C@@]3(C(=O)N(Cc4ccc(N5CCOC5=O)cc4)c4ccccc43)[C@@H]2C)cc1")
0
>>> qualitative_label("CC(C)CNC(=O)[C@@]1(c2ccc([N+](=O)[O-])cc2)CC(=O)N(C2CCCCC2)[C@@H]1c1ccc(CO)cc1I")
0
>>> qualitative_label("CCCNC(=O)[C@@]1(c2ccc([N+](=O)[O-])cc2)CC(=O)N(C2CCCCC2)[C@@H]1c1ccc(CO)cc1I")
0
>>> qualitative_label("CC(C)(C)OC(=O)CC[C@]1(C(=O)O)N=C(c2ccc(OCCCO)cc2)O[C@H]1c1ccccc1CN=[N+]=[N-]")
0
>>> qualitative_label("CCOC(=O)C1=CC[C@@H](c2ccc([N+](=O)[O-])cc2)N(S(=O)(=O)c2ccc(C)cc2)[C@H]1c1ccccc1")
0
>>> qualitative_label("C=CCOC(=O)[C@H]1[C@@H]2C(=O)O[C@@H](c3ccccc3)[C@@H](c3ccccc3)N2[C@@H](c2ccc(OCCOC(=O)[C@H]3C[C@H]4C(=O)N[C@@H](Cc5ccccc5)C(=O)N4[C@H]3c3cccc(OCCO)c3)cc2)[C@]12C(=O)Nc1ccc(I)cc12")
0
>>> qualitative_label("CC(C)(C)OC(=O)CC[C@]1(C(=O)N2CCOCC2)N=C(c2ccc(OCCCO)cc2)O[C@H]1c1ccccc1")
0
>>> qualitative_label("C=CC[C@H](OC(=O)Nc1ccc(OC)cc1)c1ccc(O)c2ccccc12")
0
>>> qualitative_label("COC(=O)C1(Cc2ccccc2)C=C2C(=C(C(C)C)C(=O)C2C)CN1 (configuration not stated)")
0
>>> qualitative_label("CC(C)(C)OC(=O)CC[C@]1(C(=O)NCCN2CCOCC2)N=C(c2ccc(OCCCO)cc2)O[C@H]1c1ccccc1N=[N+]=[N-]")
0
>>> qualitative_label("COCCOC(=O)N1C(=O)[C@@]2(c3cc(C#CCC(C(=O)OC)C(=O)OC)ccc31)[C@H](c1ccc(OCCO)cc1)N1[C@H](c3ccccc3)[C@H](c3ccccc3)OC(=O)[C@H]1[C@@H]2C(=O)N1CCN(c2ncccn2)CC1")
0
>>> qualitative_label("CCOC(=O)[C@@H]1[C@@H]2C(=O)N(CC)C(=O)[C@@H]2C[C@@H]1Sc1ccccc1")
0
>>> qualitative_label("CC(C)NC(=O)[C@@]1(C)c2ccccc2C(=O)N(C(C)C)[C@H]1c1ccc(CO)cc1")
0
>>> qualitative_label("C[C@H]1ON(c2ccc(C(=O)OC(C)(C)C)cc2)[C@@H](c2ccc(O)cc2)[C@@H]1C(=O)N1C(=O)OC[C@@H]1c1ccccc1")
1
>>> qualitative_label("COc1c(C)cc(-c2cc3c(c(Cc4ccccc4)n2)[Si](C(C)C)(C(C)C)OC3)cc1C")
0
>>> qualitative_label("CCCc1cccc(=O)o1")
0
>>> qualitative_label("COCC(=C=CC[C@H](O)c1ccc(OCCO)cc1)C[C@H](O)COCc1ccccc1")
0
>>> qualitative_label("COc1ccc([Si](C)(C)[C@@H]2[C@@H](CCn3cc([C@H](O)c4ccccc4)nn3)O[C@]3(C(=O)N(Cc4ccc(N5CCOC5=O)cc4)c4ccccc43)[C@H]2C)cc1")
0
>>> qualitative_label("CC1CC/C=C\\[C@H]2OC34C=CCN(CCN5CCOCC5)C(=O)[C@H]3N(CCO)C(=O)[C@@H]4C2C(=O)O1 (some centres not stated)")
0
>>> qualitative_label("C=C(COC)/C(=C/C[C@@H](OC(=O)c1ccncc1)c1cccc(OCCO)c1)c1cnc2ccccc2c1")
0
>>> qualitative_label("Cc1ccc(C(C)CC(O)C2C=CC3C(=O)N(c4ccccc4)C(=O)C3N2Nc2ccc(C(C)C)cc2)o1 (configuration not stated)")
0
>>> qualitative_label("COc1ccc(C(O)C2C=CC3C(=O)N(C)C(=O)C3N2N2CCCCC2)cc1 (configuration not stated)")
0
